target: P. falciparum apicoplast DNA polymerase (Pf-apPOL) (Plasmodium falciparum, UniProt Q8ILY1)
Sequence (Q8ILY1 entry or part of it): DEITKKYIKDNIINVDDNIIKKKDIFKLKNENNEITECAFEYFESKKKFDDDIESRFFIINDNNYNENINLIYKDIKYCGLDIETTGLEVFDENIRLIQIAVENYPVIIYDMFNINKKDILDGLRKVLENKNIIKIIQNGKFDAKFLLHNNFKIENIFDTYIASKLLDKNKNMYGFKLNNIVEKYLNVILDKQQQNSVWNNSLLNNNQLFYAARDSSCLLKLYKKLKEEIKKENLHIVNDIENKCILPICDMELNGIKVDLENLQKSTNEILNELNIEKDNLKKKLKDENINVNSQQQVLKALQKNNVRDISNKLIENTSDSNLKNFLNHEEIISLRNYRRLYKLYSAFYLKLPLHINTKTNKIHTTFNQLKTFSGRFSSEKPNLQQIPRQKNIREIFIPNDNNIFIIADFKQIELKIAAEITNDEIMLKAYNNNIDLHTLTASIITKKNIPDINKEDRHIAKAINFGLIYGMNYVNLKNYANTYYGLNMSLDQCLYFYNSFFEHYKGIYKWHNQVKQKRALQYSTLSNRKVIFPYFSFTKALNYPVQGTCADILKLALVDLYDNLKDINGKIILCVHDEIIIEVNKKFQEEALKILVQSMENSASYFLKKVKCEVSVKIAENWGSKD
assay_text: Fluorescence-based high-throughput DNA polymerase assay (molecular beacon), primary screen and dose-response
Format: biochemical
recorded_conditions: DRC-2; read at 40'; concentration 80
Source text: The HT assay employs a molecular beacon, a stem-loop DNA template with a Cy3 dye and the Black Hole Quencher on the 3′ and 5′ ends of the DNA, respectively. Pf-apPOL concentration is based on a calculated absorptivity of ε280 = 56750 M^−1 cm^−1. […] To identify apPOL inhibitors we utilised our previously developed high-throughput DNA polymerase assay. […] The assay accurately recapitulates the kinetic behaviour of apPOL, as measured through more conventional low-throughput gel-based assays. […]
Mark Yes for reported % inhibition Apol 40' 80 of 50% or greater; mark No for anything smaller.

Below are worked cases with known answers.
>  <compound>
O=C(c1ccccc1)N1CCc2c(nc3cc(-c4ccccc4)[nH]n3c2=O)C1 [Molecule 30]

>  <target>
P. falciparum apicoplast DNA polymerase (Pf-apPOL) (Plasmodium falciparum, UniProt Q8ILY1)

>  <class>
Yes

$$$$
>  <compound>
Cc1nc(C)c2c(n1)N(CC1CCCCC1)C(=O)CC2 [KU0218606]

>  <target>
P. falciparum apicoplast DNA polymerase (Pf-apPOL) (Plasmodium falciparum, UniProt Q8ILY1)

>  <class>
No

$$$$
>  <compound>
N#Cc1c(O)nc(N2CCCCC2)nc1-c1ccc2c(c1)OCO2 [KU0083146]

>  <target>
P. falciparum apicoplast DNA polymerase (Pf-apPOL) (Plasmodium falciparum, UniProt Q8ILY1)

>  <class>
Yes

$$$$
>  <compound>
CC(=O)OCC1=C(C(=O)[O-])N2C(=O)[C@@H](NC(=O)Cc3cccs3)[C@H]2SC1.[Na+] [Molecule 73]

>  <target>
P. falciparum apicoplast DNA polymerase (Pf-apPOL) (Plasmodium falciparum, UniProt Q8ILY1)

>  <class>
Yes

$$$$
>  <compound>
C#CC(C=CC)OC(=O)c1ccccc1C(=O)O (centres unmarked) [Molecule 61, CC=CC(OC(=O)c1ccccc1C(=O)O)C#C]

>  <target>
P. falciparum apicoplast DNA polymerase (Pf-apPOL) (Plasmodium falciparum, UniProt Q8ILY1)

>  <class>
Yes

$$$$
>  <compound>
Cn1nc(-c2nnc(-c3ccccc3F)o2)c2c1CCN(C(=O)c1ccccc1Cl)C2 [Molecule 34]

>  <target>
P. falciparum apicoplast DNA polymerase (Pf-apPOL) (Plasmodium falciparum, UniProt Q8ILY1)

>  <class>
Yes

$$$$
>  <compound>
Nc1cc(Oc2ccc(O)c(N)c2)ccc1O [KU0034728]

>  <target>
P. falciparum apicoplast DNA polymerase (Pf-apPOL) (Plasmodium falciparum, UniProt Q8ILY1)

>  <class>
Yes

$$$$
>  <compound>
Cc1ccc(N2CCC(NC(=O)Cc3cccs3)C2=O)cc1C (centres unmarked) [Molecule 57, O=C(NC1CCN(C1=O)c1ccc(c(c1)C)C)Cc1cccs1]

>  <target>
P. falciparum apicoplast DNA polymerase (Pf-apPOL) (Plasmodium falciparum, UniProt Q8ILY1)

>  <class>
No

$$$$
>  <compound>
O=C1CSC2=NC3=C(CCc4ccccc43)C(c3cccs3)N12 (centres unmarked) [Molecule 59, O=C1CSC2=NC3=C(C(N12)c1cccs1)CCc1c3cccc1]

>  <target>
P. falciparum apicoplast DNA polymerase (Pf-apPOL) (Plasmodium falciparum, UniProt Q8ILY1)

>  <class>
No

$$$$
>  <compound>
COc1ccc(/C=C/c2cc(C(=O)O)c3ccccc3n2)cc1 [Molecule 5, COc1ccc(cc1)/C=C/c1nc2ccccc2c(c1)C(=O)O]

>  <target>
P. falciparum apicoplast DNA polymerase (Pf-apPOL) (Plasmodium falciparum, UniProt Q8ILY1)

>  <class>
No

$$$$

Assess whether reported % inhibition Apol 40' 80 for CCCc1ccc(Oc2coc3cc(OC)ccc3c2=O)cc1 [KU0193249] sits at 50% or higher. No

Assess whether reported % inhibition Apol 40' 80 for COc1ccccc1CC(=O)N1CCc2c(nc3cc(-c4ccccc4Cl)[nH]n3c2=O)C1 [Molecule 49] sits at 50% or higher. Yes

Assess whether reported % inhibition Apol 40' 80 for Cn1nc(-c2nc(-c3ccccc3)no2)c2c1CCN(C(=O)Cc1cccs1)C2 [Molecule 58] sits at 50% or higher. No

Assess whether reported % inhibition Apol 40' 80 for CC(=O)Nc1cc(C(=O)c2cccs2)nn(-c2ccc(Cl)cc2)c1=O [KU0267905] sits at 50% or higher. Yes

Source: paper PMC9090415
